Recorded pIC50 for the following compounds
# TARGET_OF_ASSAY: IκBα ubiquitinating enzyme (SCF complex: ROC1, Cullin1, Skp1, His-TrCP1; with E1, UbcH5b) (Homo sapiens, UniProt P62877+P63208+Q13616+Q9Y297)
# Construct: His (polyhistidine); made in house; host or cells: insect cells (baculovirus) for the SCF complex and His-E1; E. coli for His-UBCH5b
# Sequence (Q9Y297 whole entry): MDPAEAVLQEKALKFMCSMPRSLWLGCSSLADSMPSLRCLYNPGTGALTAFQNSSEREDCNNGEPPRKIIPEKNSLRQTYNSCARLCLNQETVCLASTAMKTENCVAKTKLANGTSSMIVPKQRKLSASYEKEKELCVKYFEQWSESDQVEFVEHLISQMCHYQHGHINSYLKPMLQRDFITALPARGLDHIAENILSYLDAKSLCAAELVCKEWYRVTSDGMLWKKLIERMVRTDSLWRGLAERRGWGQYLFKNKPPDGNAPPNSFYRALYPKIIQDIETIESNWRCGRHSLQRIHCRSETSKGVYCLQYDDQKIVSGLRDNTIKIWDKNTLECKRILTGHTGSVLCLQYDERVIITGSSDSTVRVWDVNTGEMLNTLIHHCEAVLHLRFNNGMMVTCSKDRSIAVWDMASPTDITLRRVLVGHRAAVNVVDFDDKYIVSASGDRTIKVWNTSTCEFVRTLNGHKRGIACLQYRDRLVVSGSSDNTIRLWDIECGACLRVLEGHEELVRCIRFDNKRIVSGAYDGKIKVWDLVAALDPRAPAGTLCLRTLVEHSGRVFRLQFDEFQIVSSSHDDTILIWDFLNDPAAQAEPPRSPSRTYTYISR
# Sequence (Q13616 whole entry): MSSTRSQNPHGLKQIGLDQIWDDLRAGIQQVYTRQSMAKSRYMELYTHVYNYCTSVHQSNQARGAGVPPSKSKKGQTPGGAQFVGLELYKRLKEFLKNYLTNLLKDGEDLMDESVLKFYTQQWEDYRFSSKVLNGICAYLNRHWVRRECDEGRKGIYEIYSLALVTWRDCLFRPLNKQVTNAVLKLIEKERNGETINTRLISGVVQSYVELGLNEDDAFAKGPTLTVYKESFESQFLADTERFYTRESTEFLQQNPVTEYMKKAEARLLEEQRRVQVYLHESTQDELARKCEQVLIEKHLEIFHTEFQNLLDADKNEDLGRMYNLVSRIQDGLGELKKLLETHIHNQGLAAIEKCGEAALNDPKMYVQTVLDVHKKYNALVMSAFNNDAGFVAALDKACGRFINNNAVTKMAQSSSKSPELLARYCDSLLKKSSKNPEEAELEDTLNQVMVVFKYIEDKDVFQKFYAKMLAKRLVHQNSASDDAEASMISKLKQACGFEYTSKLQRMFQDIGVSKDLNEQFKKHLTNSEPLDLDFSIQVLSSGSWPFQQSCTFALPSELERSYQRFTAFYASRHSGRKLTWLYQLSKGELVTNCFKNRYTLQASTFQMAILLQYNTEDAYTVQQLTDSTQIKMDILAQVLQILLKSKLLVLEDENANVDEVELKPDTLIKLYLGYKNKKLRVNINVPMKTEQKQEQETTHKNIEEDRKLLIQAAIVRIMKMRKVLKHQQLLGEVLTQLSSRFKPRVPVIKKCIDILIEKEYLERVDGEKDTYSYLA
# Sequence (P63208 whole entry): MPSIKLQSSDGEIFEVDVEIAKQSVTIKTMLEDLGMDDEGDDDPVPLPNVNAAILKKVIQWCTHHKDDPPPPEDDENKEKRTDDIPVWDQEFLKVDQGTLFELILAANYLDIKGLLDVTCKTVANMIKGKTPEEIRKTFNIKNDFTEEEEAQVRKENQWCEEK
# Sequence (P62877 whole entry): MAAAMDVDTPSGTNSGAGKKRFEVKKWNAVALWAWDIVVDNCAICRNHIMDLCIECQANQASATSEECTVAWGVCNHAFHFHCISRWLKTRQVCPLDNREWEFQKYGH
# PROTOCOL_SUMMARY: Measurement of ubiquitinating enzyme activity (IκBα ubiquitination, time-resolved fluorescence with Eu(K)-labeled ubiquitin and XL665-labeled anti-GST antibody)
# Assay type: biochemical
pIC50: −log10 of the molar value.

Example compounds with recorded pIC50:
COMPOUND: CC1=NN(c2ccc(S(N)(=O)=O)cc2)C(=O)C1=Cc1ccc(N2CCN(C(=O)OC(C)(C)C)CC2)cc1 [Compound 179]
pIC50: 4.70 to 5.00
--
COMPOUND: CC1=NN(c2ccc(S(N)(=O)=O)cc2)C(=O)C1=Cc1ccc(OCc2ccc([N+](=O)[O-])cc2)cc1 [Compound 216]
pIC50: > 5.00
--
COMPOUND: COC(=O)N1CCN(c2ccc(C=C3C(=O)N(c4ccc(C(=O)O)cc4)N=C3c3cccnc3)cc2)CC1 [Compound 307]
pIC50: 4.70 to 5.00
--
COMPOUND: CC1=NN(c2ccccc2)C(=O)C1=Cc1ccc(Oc2ccccc2)cc1 [Compound 212]
pIC50: 4.70 to 5.00
--
COMPOUND: CC1=NN(c2ccc(C(=O)O)cc2)C(=O)C1=Cc1ccc(N2CCN(c3ccccc3)CC2)cc1 [Compound 430]
pIC50: > 5.00

Form: compound = CCOC(=O)COc1ccc(C=C2C(=O)N(c3ccc(S(N)(=O)=O)cc3)N=C2C)cc1 [Compound 215] ; pIC50 = 4.70 to 5.00

// pIC50 value for CC1=NN(c2cccc(C(=O)O)c2)C(=O)C1=Cc1cc2ccccc2o1 [Compound 428] : 4.70 to 5.00

Notebook: COc1ccc(C2=NN(c3ccc(C(=O)O)cc3)C(=O)C2=Cc2ccc(O)c(OC)c2)cc1 [Compound 324] , pIC50 read as > 5.00

###

# TARGET_OF_ASSAY: IκBα ubiquitinating enzyme (SCF complex: ROC1, Cullin1, Skp1, His-TrCP1; with E1, UbcH5b) (Homo sapiens, UniProt P62877+P63208+Q13616+Q9Y297)
# Construct: His (polyhistidine); made in house; host or cells: insect cells (baculovirus) for the SCF complex and His-E1; E. coli for His-UBCH5b
# PROTOCOL_SUMMARY: Measurement of ubiquitinating enzyme activity (IκBα ubiquitination, time-resolved fluorescence with Eu(K)-labeled ubiquitin and XL665-labeled anti-GST antibody)
# Assay type: biochemical
# STUDY_CONDITIONS: enzyme activity inhibition test, method (1), Table 5; read-out: EVALUATION
This section presents compounds with their documented IC50 values.

STRUCTURE: O=C(O)c1ccc(N2N=C(Cc3ccccc3)/C(=C/c3ccc(CO)o3)C2=O)cc1
IC50: 10 to 20 µM

Now consider the entry below.
Recorded result, CC1=NN(c2ccccc2)C(=O)/C1=C\c1ccc(N2CCN(C)CC2)cc1 , IC50: 10 to 20 µM

###

# TARGET_OF_ASSAY: IκBα ubiquitinating enzyme (SCF complex: ROC1, Cullin1, Skp1, His-TrCP1; with E1, UbcH5b) (Homo sapiens, UniProt P62877+P63208+Q13616+Q9Y297)
# Construct: His (polyhistidine); made in house; host or cells: insect cells (baculovirus) for the SCF complex and His-E1; E. coli for His-UBCH5b
# PROTOCOL_SUMMARY: Measurement of ubiquitinating enzyme activity (IκBα ubiquitination, time-resolved fluorescence with Eu(K)-labeled ubiquitin and XL665-labeled anti-GST antibody)
# Type: biochemical
# STUDY_CONDITIONS: enzyme activity inhibition test, method (1), Table 5; read-out: EVALUATION
pIC50: −log10 of the molar value.
READOUT: pIC50

# count of solved cases: 4
STRUCTURE: COc1cc(/C=C2\C(=O)N(c3ccccc3)N=C2C2CC2)ccc1O
pIC50: 4.70 to 5.00
--
STRUCTURE: CC1=NN(c2ccc(S(N)(=O)=O)cc2)C(=O)/C1=C\c1ccc(NC(=O)c2ccccc2)cc1
pIC50: > 5.00
--
STRUCTURE: Cn1cc(-c2ccc(/C=C3\C(=O)N(c4ccc(C(=O)O)cc4)N=C3c3ccoc3)o2)cn1
pIC50: > 5.00
--
STRUCTURE: CC1=NN(c2cccc(C(=O)O)c2)C(=O)/C1=C\c1c(C)nn(C)c1Cl
pIC50: > 4.40

Reported pIC50 of CC1=NN(c2cccc(C(=O)O)c2)C(=O)/C1=C\c1cccc2[nH]ccc12 : > 5.00

Lab note: COc1cc(/C=C2\C(=O)N(c3ccccc3)N=C2c2ccoc2)ccc1O gave pIC50 of > 5.00

Form field pIC50, entry CC1=NN(c2cccc(C(=O)O)c2)C(=O)/C1=C\c1ccc(N2CCC(C(=O)O)CC2)cc1 : > 5.00

###

# TARGET_OF_ASSAY: IκBα ubiquitinating enzyme (SCF complex: ROC1, Cullin1, Skp1, His-TrCP1; with E1, UbcH5b) (Homo sapiens, UniProt P62877+P63208+Q13616+Q9Y297)
# Construct: His (polyhistidine); made in house; host or cells: insect cells (baculovirus) for the SCF complex and His-E1; E. coli for His-UBCH5b
# PROTOCOL_SUMMARY: Measurement of ubiquitinating enzyme activity (IκBα ubiquitination, time-resolved fluorescence with Eu(K)-labeled ubiquitin and XL665-labeled anti-GST antibody)
# Assay type: biochemical
# STUDY_CONDITIONS: enzyme activity inhibition test, method (1), Table 5; read-out: EVALUATION
READOUT: IC50

COMPOUND: CC1=NN(c2ccc(C(=O)N3CCCC3CO)cc2)C(=O)/C1=C\c1ccc2[nH]ccc2c1 (stereo not shown)
IC50: < 10 µM
--
COMPOUND: CC1=NN(c2ccc(S(N)(=O)=O)cc2)C(=O)C1=Cc1ccc(N2CCCC2CO)cc1 (stereo not shown)
IC50: < 40 µM
--
COMPOUND: O=C(O)c1ccc(N2N=C(c3ccccn3)/C(=C/c3ccc4c(c3)OCCO4)C2=O)cc1
IC50: 10 to 20 µM
--
COMPOUND: CC1=NN(c2ccc(C(=O)O)cc2)C(=O)/C1=C\c1ccc2c(ccn2Cc2csc(C)n2)c1
IC50: < 10 µM
--
COMPOUND: CCOC(=O)c1ccc(COc2ccc(/C=C3\C(=O)N(c4cccc(S(N)(=O)=O)c4)N=C3C)cc2OC)o1
IC50: < 40 µM
--
COMPOUND: CCOC(=O)CN1N=C(C)/C(=C/c2ccc(O)c(OC)c2)C1=O
IC50: 10 to 20 µM
--
COMPOUND: CC(=O)OCc1ccc(/C=C2\C(=O)N(c3ccc(C(=O)O)cc3)N=C2C)o1
IC50: < 40 µM
--
COMPOUND: CCCCC1=NN(c2ccc(C(=O)O)cc2)C(=O)/C1=C\c1ccc(N2CCN(C(=O)OC)CC2)cc1
IC50: < 10 µM

Note to self: IC50 recorded for COc1cc(/C=C2\C(=O)N(c3ccccc3)N=C2c2cccnc2)ccc1O was < 40 µM

Recorded IC50 (compound O=C1/C(=C\c2ccc(CO)o2)C(c2ccoc2)=NN1c1ccccc1 ): < 10 µM

Item: O=C1/C(=C\c2ccc3ccccc3c2)C(c2ccoc2)=NN1c1ccccc1 | IC50: < 10 µM

// field: IC50; key: CC1=NN(c2ccc(C(=O)O)cc2)C(=O)/C1=C\c1ccc(-n2cccn2)cc1 ; value = < 10 µM

// sample COc1cc(/C=C2\C(=O)N(c3ccc(S(N)(=O)=O)cc3)N=C2C)ccc1OCC(=O)OC(C)(C)C , its IC50 was 10 to 20 µM

###

# TARGET_OF_ASSAY: IκBα ubiquitinating enzyme (SCF complex: ROC1, Cullin1, Skp1, His-TrCP1; with E1, UbcH5b) (Homo sapiens, UniProt P62877+P63208+Q13616+Q9Y297)
# Construct: His (polyhistidine); made in house; host or cells: insect cells (baculovirus) for the SCF complex and His-E1; E. coli for His-UBCH5b
# PROTOCOL_SUMMARY: Measurement of ubiquitinating enzyme activity (IκBα ubiquitination, time-resolved fluorescence with Eu(K)-labeled ubiquitin and XL665-labeled anti-GST antibody)
# Assay type: biochemical
# STUDY_CONDITIONS: enzyme activity inhibition test, method (1), Table 5; read-out: EVALUATION
pIC50: −log10 of the molar value.
READOUT: pIC50

Some compounds with known pIC50 results, for comparison:
STRUCTURE: CC1=NN(c2ccc(C(=O)O)cc2)C(=O)/C1=C\c1cccc2nccnc12
pIC50: 4.70 to 5.00
--
STRUCTURE: COc1ccc(C2=NN(c3ccc(C(=O)O)cc3)C(=O)/C2=C\c2ccc(CO)o2)cc1OC
pIC50: 4.70 to 5.00
--
STRUCTURE: COc1cc(/C=C2\C(=O)N(c3ccc(C(=O)O)cc3)N=C2C2CC2)ccc1O
pIC50: > 5.00

Consider now this further compound.
Note to self: pIC50 recorded for COc1cc(/C=C2\C(=O)N(c3ccccc3)N=C2C2CC2)ccc1OCc1ccccc1 was > 5.00
